- experimental conditions: 303.15 K; 101 kPa; Liquid; Vibrating tube method
readout: mass density (kg/m3)

# record smiles, measurement units, mass density
rows = [
    ("CCCCO", "kg/m3", 801.86),
    ("CCCCCCCC", "kg/m3", 694.44),
    ("CCCCCO", "kg/m3", 807.24),
    ("CCO", "kg/m3", 782.28),
    ("CCCO", "kg/m3", 795.81),
]

----------
- experimental conditions: 318.15 K; 101 kPa; Liquid; Capillary tube (Ostwald / Ubbelohde) method
readout: viscosity (mPa·s)

# record smiles, viscosity / mPa·s
data = [
    ("CCCO", 1.242),
    ("CCCCO", 1.59),
]

(1) CCCCCCCC
(2) CCCCCO
Incoming: Could you tell me which of 1 and 2 has the lower viscosity reading? Answer by quoting the chosen item's label.
Outgoing: 1
(1: 0.412 mPa·s, 2: 2.042 mPa·s)

----------
- experimental conditions: 298.15 K; 101 kPa; Liquid; Vibrating tube method
readout: mass density (kg/m3)

# compound, readout, measurement units, readout number
records = [
    ("CCO [ethanol]", "mass density", "kg/m3", 786.6),
    ("CCCCCO [pentan-1-ol]", "mass density", "kg/m3", 810.93),
    ("CCCCO [butan-1-ol]", "mass density", "kg/m3", 805.7),
    ("CCCO [propan-1-ol]", "mass density", "kg/m3", 799.85),
    ("CCCCCCCC [octane]", "mass density", "kg/m3", 698.49),
]

----------
- experimental conditions: 298.15 K; 101 kPa; Liquid; Capillary tube (Ostwald / Ubbelohde) method
readout: viscosity (mPa·s)

# example entries with known answers
# molecule, viscosity, mPa·s
rows = [
    ("CCCO [propan-1-ol]", 1.962),
    ("CCCCO [butan-1-ol]", 2.602),
]

(P) CCCCCCCC [octane]
(Q) CCCCCO [pentan-1-ol]
Incoming: Could you tell me which of P and Q has the lower viscosity reading? Answer by quoting the chosen item's label.
Outgoing: P

----------
- experimental conditions: 323.15 K; 101 kPa; Liquid; Vibrating tube method
readout: mass density (kg/m3)

# compound, measurement units, mass density
rows = [
    ("CCCO [propan-1-ol]", "kg/m3", 779.32),
    ("CCO [ethanol]", "kg/m3", 764.69),
    ("CCCCCO [pentan-1-ol]", "kg/m3", 792.23),
    ("CCCCCCCC [octane]", "kg/m3", 678.08),
    ("CCCCO [butan-1-ol]", "kg/m3", 786.21),
]

----------
- experimental conditions: 293.15 K; 101 kPa; Liquid; Capillary tube (Ostwald / Ubbelohde) method
readout: viscosity (mPa·s)

# example entries with known answers
# record smiles, readout number
records = [
    ("CCCO", 2.21),
    ("CCCCCO", 4.042),
]

(a) CCCCO
(b) CCCCCCCC
Incoming: Could you tell me which of a and b has the lower viscosity reading? Answer by quoting the chosen item's label.
Outgoing: b

----------
- experimental conditions: 318.15 K; 101 kPa; Liquid; Vibrating tube method
readout: mass density (kg/m3)

# compound, readout, readout number
records = [
    ("CCO [ethanol]", "mass density", 769.15),
    ("CCCCCCCC [octane]", "mass density", 682.19),
    ("CCCO [propan-1-ol]", "mass density", 783.55),
    ("CCCCCO [pentan-1-ol]", "mass density", 796.03),
    ("CCCCO [butan-1-ol]", "mass density", 790.18),
]

----------
- experimental conditions: 308.15 K; 101 kPa; Liquid; Capillary tube (Ostwald / Ubbelohde) method
readout: viscosity (mPa·s)

# record smiles, readout, readout number
measured = [
    ("CCCCO", "viscosity", 2.025),
]

(A) CCCO
(B) CCCCCO
(C) CCCCCCCC
Incoming: # rank by viscosity, ascending (min first) Use the labels to give the requested order.
Outgoing: C, A, B
(C: 0.459 mPa·s, A: 1.556 mPa·s, B: 2.659 mPa·s)

----------
- experimental conditions: 303.15 K; 101 kPa; Liquid; Capillary tube (Ostwald / Ubbelohde) method
readout: viscosity (mPa·s)

# record smiles, viscosity / mPa·s
rows = [
    ("CCCCO", 2.292),
]

(A) CCCO
(B) CCCCCO
(C) CCCCCCCC
Incoming: Put the items in sequence by viscosity, from largest down. Use the labels to give the requested order.
Outgoing: B, A, C

----------
- experimental conditions: 293.15 K; 101 kPa; Liquid; Vibrating tube method
readout: mass density (kg/m3)

# record smiles, mass density [kg/m3]
data = [
    ("CCCCCO", 814.59),
    ("CCO", 790.91),
    ("CCCO", 803.84),
    ("CCCCCCCC", 702.54),
    ("CCCCO", 809.53),
]

----------
- experimental conditions: 313.15 K; 101 kPa; Liquid; Capillary tube (Ostwald / Ubbelohde) method
readout: viscosity (mPa·s)

# molecule, readout, readout number
data = [
    ("CCCCCO [pentan-1-ol]", "viscosity", 2.334),
    ("CCCO [propan-1-ol]", "viscosity", 1.386),
]

(a) CCCCO [butan-1-ol]
(b) CCCCCCCC [octane]
Incoming: Between a and b , whose recorded viscosity is greater? Answer by quoting the chosen item's label.
Outgoing: a
(a: 1.796 mPa·s, b: 0.433 mPa·s)

----------
- experimental conditions: 323.15 K; 101 kPa; Liquid; Capillary tube (Ostwald / Ubbelohde) method
readout: viscosity (mPa·s)

# example entries with known answers
# molecule, measurement units, viscosity
records = [
    ("CCCO [propan-1-ol]", "mPa·s", 1.115),
    ("CCCCO [butan-1-ol]", "mPa·s", 1.414),
]

(A) CCCCCO [pentan-1-ol]
(B) CCCCCCCC [octane]
Incoming: Could you tell me which of A and B has the lower viscosity reading? Answer by quoting the chosen item's label.
Outgoing: B
(B: 0.392 mPa·s, A: 1.805 mPa·s)

----------
- experimental conditions: 313.15 K; 101 kPa; Liquid; Vibrating tube method
readout: mass density (kg/m3)

# compound, measurement units, mass density
rows = [
    ("CCCCCO [pentan-1-ol]", "kg/m3", 799.79),
    ("CCCO [propan-1-ol]", "kg/m3", 787.64),
    ("CCCCO [butan-1-ol]", "kg/m3", 794.1),
    ("CCCCCCCC [octane]", "kg/m3", 686.29),
    ("CCO [ethanol]", "kg/m3", 773.56),
]

----------
- experimental conditions: 308.15 K; 101 kPa; Liquid; Vibrating tube method
readout: mass density (kg/m3)

# record smiles, readout, measurement units, readout number
rows = [
    ("CCCO", "mass density", "kg/m3", 791.74),
    ("CCCCO", "mass density", "kg/m3", 797.99),
    ("CCO", "mass density", "kg/m3", 777.94),
    ("CCCCCCCC", "mass density", "kg/m3", 690.37),
    ("CCCCCO", "mass density", "kg/m3", 803.53),
]

Recorded values, source the NIST ThermoML archive (doi:10.1021/je4004806).
